- assay.procedure: AUC (0 to infinity) in Sprague-Dawley rat at 5 mg/kg, iv
- Type: ADME, organism-based
- Set-up: time infinity, dose 5 mg/kg, route iv
- setup.conditions: in vivo
metric: AUC(0-inf) (ng·h/mL)
Value expressed in ng·h/mL; do not type the unit.

Query: So what does the record say about AUC(0-inf) for CC1=C(C(=O)O[C@H](C)c2ccccc2)C(c2ccc3c(cnn3C)c2)C(C(=O)O[C@H](C)c2ccccc2)=C(C)N1 ?
Result: 4590

---

- assay.procedure: Half life in Sprague-Dawley rat at 5 mg/kg, iv
- Assay type: ADME, organism-based
- setup.conditions: in vivo
metric: half-life
# answer = value followed by unit

Query: Which half-life is reported for this compound? CC1=C(C(=O)O[C@H](C)c2ccccc2)C(c2ccc3c(cnn3C)c2)C(C(=O)O[C@H](C)c2ccccc2)=C(C)N1
Result: 3.67 h

---

- assay.system: cGMP-inhibited 3',5'-cyclic phosphodiesterase 3A (Homo sapiens, UniProt Q14432)
- Sequence (Q14432 whole entry): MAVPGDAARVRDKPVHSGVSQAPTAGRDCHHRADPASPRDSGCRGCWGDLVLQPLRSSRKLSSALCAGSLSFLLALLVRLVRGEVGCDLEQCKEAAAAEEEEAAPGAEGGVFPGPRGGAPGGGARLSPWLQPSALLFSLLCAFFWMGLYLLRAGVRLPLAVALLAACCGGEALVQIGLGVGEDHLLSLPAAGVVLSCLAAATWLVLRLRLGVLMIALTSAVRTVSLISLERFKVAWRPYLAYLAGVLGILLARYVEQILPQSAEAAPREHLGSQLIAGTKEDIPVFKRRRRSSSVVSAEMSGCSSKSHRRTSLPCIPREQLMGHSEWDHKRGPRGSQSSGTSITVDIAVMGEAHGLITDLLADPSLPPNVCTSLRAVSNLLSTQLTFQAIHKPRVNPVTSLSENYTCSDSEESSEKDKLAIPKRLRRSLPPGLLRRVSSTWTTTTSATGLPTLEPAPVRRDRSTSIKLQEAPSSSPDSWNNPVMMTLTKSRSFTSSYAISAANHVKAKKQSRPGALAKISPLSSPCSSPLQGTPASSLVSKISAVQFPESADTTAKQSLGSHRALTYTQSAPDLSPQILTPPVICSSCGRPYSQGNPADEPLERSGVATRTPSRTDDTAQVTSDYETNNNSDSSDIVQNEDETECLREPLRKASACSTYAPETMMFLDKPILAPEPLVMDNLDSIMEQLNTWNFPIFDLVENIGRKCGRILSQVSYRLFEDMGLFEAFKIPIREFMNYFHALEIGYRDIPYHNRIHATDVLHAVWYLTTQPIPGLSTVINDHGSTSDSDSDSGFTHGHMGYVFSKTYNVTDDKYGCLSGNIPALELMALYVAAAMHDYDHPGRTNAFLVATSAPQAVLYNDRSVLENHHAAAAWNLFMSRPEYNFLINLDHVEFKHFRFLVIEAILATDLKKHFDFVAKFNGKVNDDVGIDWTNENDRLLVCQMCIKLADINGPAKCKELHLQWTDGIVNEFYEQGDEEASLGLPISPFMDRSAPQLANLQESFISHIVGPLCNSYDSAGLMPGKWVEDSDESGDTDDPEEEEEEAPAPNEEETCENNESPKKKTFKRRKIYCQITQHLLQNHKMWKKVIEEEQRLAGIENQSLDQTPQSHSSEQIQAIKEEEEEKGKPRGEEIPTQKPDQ
pIC50: −log10 of the molar value.
metric: pIC50

Query: Look up pIC50: CC1=C(C(=O)O[C@H](C)c2ccccc2)C(c2ccc3c(cnn3C)c2)C(C(=O)O[C@H](C)c2ccccc2)=C(C)N1
Result: < 5.00

---

- assay.system: Dual specificity calcium/calmodulin-dependent 3',5'-cyclic nucleotide phosphodiesterase 1C (Homo sapiens, UniProt Q14123)
- Sequence (Q14123 whole entry, the tested form may be a part): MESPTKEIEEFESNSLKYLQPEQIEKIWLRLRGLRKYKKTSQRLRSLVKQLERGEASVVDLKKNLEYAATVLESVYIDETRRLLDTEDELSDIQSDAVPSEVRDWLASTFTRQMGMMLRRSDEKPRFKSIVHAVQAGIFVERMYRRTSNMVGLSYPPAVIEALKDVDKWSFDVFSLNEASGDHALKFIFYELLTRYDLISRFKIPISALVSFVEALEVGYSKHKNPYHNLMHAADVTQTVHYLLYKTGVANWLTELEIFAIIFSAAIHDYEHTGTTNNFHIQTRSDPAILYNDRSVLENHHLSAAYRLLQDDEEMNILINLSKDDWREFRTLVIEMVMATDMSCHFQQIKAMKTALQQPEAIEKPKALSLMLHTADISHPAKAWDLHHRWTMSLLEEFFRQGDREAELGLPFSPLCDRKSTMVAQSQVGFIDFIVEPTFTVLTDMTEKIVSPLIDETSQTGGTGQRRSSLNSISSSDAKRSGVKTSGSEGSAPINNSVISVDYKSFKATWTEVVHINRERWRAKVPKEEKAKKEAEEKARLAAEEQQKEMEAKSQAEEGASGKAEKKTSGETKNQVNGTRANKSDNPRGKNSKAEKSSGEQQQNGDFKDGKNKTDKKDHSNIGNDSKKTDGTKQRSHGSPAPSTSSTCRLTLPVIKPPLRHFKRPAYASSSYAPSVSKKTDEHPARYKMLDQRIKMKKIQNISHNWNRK
- assay.procedure: Inhibition of PDE1C (147 to 531 residues) (unknown origin) expressed in Escherichia coli BL21 using [3H]-cGMP as substrate measured for 15 mins by liquid scintillation counter method
# pIC50 per record follows
Please keep in mind that pIC50 is minus log10 of the molar concentration; only the number is needed.

- compound: "CCOC(=O)C1=C(C)NC(C)=C(C(=O)OC)C1c1cccc([N+](=O)[O-])c1 (centres undefined)"
  pIC50: 5.73
- compound: "CC1=C(C(=O)OCc2cncs2)C(c2ccc3c(cnn3C)c2)C(C(=O)OCc2cncs2)=C(C)N1"
  pIC50: 6.72

Continue with the next compound.
Query: # get_value(readout='pIC50', item= COCCOC(=O)C1=C(C)NC(C)=C(C(=O)OC(C)C)C1c1cccc([N+](=O)[O-])c1 (centres undefined) )
Result: 5.91

---

- assay.system: 3',5'-cyclic-AMP phosphodiesterase 4D (Homo sapiens, UniProt Q08499)
- Sequence (Q08499 whole entry): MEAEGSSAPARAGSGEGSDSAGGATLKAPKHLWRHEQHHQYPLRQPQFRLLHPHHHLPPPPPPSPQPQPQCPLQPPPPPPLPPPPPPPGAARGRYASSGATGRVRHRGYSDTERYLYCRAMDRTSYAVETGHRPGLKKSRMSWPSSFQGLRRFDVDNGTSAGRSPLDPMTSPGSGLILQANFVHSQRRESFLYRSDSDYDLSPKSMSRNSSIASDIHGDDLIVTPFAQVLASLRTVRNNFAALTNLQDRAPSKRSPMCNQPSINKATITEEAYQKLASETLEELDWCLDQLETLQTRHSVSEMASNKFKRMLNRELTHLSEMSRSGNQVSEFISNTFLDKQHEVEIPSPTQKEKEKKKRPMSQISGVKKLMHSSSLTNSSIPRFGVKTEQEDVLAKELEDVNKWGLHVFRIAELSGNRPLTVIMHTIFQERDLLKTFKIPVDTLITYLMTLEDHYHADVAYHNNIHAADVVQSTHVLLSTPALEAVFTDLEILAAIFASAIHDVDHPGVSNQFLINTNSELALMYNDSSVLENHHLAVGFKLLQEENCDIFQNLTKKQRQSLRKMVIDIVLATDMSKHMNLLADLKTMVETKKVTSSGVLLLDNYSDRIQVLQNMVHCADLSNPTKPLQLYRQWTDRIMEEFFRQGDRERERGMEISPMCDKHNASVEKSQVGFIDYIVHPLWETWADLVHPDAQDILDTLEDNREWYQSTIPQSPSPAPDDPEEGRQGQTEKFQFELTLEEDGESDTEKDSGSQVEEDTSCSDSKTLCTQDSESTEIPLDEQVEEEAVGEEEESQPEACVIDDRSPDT
metric: IC50 (µM)
Respond with the bare value in µM.

Query: Query for 3',5'-cyclic-AMP phosphodiesterase 4D (Homo sapiens, UniProt Q08499): what IC50 does the record show for CC1=C(C(=O)O[C@H](C)c2ccccc2)C(c2ccc3c(cnn3C)c2)C(C(=O)O[C@H](C)c2ccccc2)=C(C)N1 ?
Result: 0.948
